read-out: E-selectin (Homo sapiens) (UniProt P16581); experiment: BSK_SAg_Eselectin: BioMAP Diversity Plus: SAg Assay for Eselectin Biomarker Activity (AID 2283091); details: primary human HUVEC with PBMC; actives raise or lower the signal
Sequence (P16581 whole entry, looked up): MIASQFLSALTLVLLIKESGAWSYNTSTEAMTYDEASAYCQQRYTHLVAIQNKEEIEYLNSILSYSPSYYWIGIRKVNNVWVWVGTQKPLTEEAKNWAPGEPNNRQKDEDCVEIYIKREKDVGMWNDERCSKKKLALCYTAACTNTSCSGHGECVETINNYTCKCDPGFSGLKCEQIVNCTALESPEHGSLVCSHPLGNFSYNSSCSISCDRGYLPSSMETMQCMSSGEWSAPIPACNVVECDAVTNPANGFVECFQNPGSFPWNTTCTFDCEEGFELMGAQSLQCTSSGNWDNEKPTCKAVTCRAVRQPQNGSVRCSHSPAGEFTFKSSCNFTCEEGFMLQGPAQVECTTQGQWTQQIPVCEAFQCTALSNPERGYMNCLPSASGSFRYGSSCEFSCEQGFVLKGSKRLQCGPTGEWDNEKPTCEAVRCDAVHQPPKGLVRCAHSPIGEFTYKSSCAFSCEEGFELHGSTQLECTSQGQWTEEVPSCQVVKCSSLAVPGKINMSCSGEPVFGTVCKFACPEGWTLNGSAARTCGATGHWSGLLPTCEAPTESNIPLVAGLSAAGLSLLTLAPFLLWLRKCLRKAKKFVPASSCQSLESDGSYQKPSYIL
Activity calls are given as the source filed them. Rule for the calls: active = hit-call score of the fitted dose curve at least 0.9, where 1 is the maximum; inactive = score below 0.9.
EXPERIMENTAL ENDPOINT: AC50

# annotated cases, reported AC50 shown
{"COMPOUND": "O=c1n(CC2CO2)c(=O)n(CC2CO2)c(=O)n1CC1CO1 (configuration not stated)", "AC50": "10.7 µM (active)"}
{"COMPOUND": "CCCCC(CC)COC(=O)c1ccc(C(=O)OCC(CC)CCCC)cc1 (configuration not stated)", "AC50": "inactive"}
{"COMPOUND": "O=C(O)c1cccc(Oc2ccccc2)c1", "AC50": "inactive"}
{"COMPOUND": "COCCOc1cc2cc(C(=O)NC3CCN(C(C)C)CC3)n(CC(=O)Nc3ccc(Cl)cn3)c2cn1", "AC50": "inactive"}
{"COMPOUND": "COCCOCCOCCOC", "AC50": "inactive"}
{"COMPOUND": "Cc1ccc(C)c(O)c1", "AC50": "inactive"}
{"COMPOUND": "CCCCCCCCO", "AC50": "inactive"}
{"COMPOUND": "CCCN(C1CCN(C(=O)C2CCNCC2)CC1)[C@@H]1CCc2ccc(OC)cc2C1", "AC50": "inactive"}

q: Recall and state the measured AC50 for C[C@](N)(Cc1ccc(O)c(O)c1)C(=O)O .
a: inactive

q: Recall and state the measured AC50 for Fc1ccccc1[C@@H](F)COC1CCC(Nc2ncnc3[nH]ncc23)CC1 (some centres not stated) .
a: inactive

q: Recall and state the measured AC50 for CCOc1cccc(-n2cc(C(=O)N3CCN(c4cc(C(=O)O)c5ccccc5c4)CC3)nc2-c2ccc(C)cc2)c1 .
a: 19.2 µM (active)

q: Recall and state the measured AC50 for O=C(CCCCCCCCc1cccnc1)N1CCC(C=C(c2ccccc2)c2ccccc2)CC1 .
a: 7.71 µM (active)

q: Recall and state the measured AC50 for CC(C)=CCCC(C)CCO (configuration not stated) .
a: inactive

q: Recall and state the measured AC50 for CNCc1ccc(NC(=O)c2c[nH]c3c2C(=O)CCC3)cc1 .
a: inactive

q: Recall and state the measured AC50 for Cc1[nH]cnc1C[C@H]1CCc2c(C)c3ccccc3n2C1=O .
a: 30.8 µM (active)

q: Recall and state the measured AC50 for CNS(=O)(=O)c1cc(C(=O)N2CCC(CCN3C4CCC3CC(n3c(C)nc5ccccc53)C4)(c3cccc(F)c3)CC2)c(Cl)cc1F (configuration not stated) .
a: inactive

q: Recall and state the measured AC50 for O=C(O)c1cccc(N(Cc2cccnc2)c2ccc(OC(F)F)c(OC(F)F)c2)c1 .
a: 1.81 µM (active)

The origin of these recorded values is PubChem BioAssay (EPA / NIEHS).
